biological target: Hypoxia-inducible factor 1-alpha (Homo sapiens); test: HIF-2a and HIF-1a reporter inhibition panel, dose response, selectivity assay for HIF-2a inhibitor project, cell-based, luminescence (AID 651581); settings: HIF-1a, run 2
Consider the cut-off 30 µM. If the recorded IC50 is strictly smaller, the label is yes (1); if not, the label is no (0).

- CSC(SC)=C(C#N)C(=O)c1ccccc1: no (0)
- CN(C)c1c([N+](=O)[O-])cc(N2C(=O)C=CC2=O)cc1[N+](=O)[O-]: no (0)
- C=CS(=O)(=O)c1sc(Cl)c(N2CCOCC2)c1[N+](=O)[O-]: no (0)
- Cc1ccc(NC(=O)c2cc(N3C(=O)C=CC3=O)ccc2N2CCOCC2)cc1: no (0)
- c1c2c(cc3sc(N4CCOCC4)nc13)OCCO2: yes (1)
- O=C(c1ccccc1)c1cc(Cl)ccc1N1C(=O)C=CC1=O: no (0)
- O=C(Nc1cc(S(=O)(=O)N2CCOCC2)ccc1Cl)c1cc([N+](=O)[O-])ccc1Cl: yes (1)
- Cc1ccc(C)c(S(=O)(=O)ON2C(=O)c3ccccc3C2=O)c1: no (0)
- Cc1csc(NC(=O)c2cn3ccccc3n2)n1: yes (1)
- O=C(Nc1ccc(Cl)cc1Cl)c1cccc(N2C(=O)C=CC2=O)c1: no (0)
- CCOc1cc(/C=N/Nc2cccc(C(=O)O)c2)ccc1OC(=O)c1ccccc1: no (0)

* * *

target: Endothelial PAS domain-containing protein 1 (Homo sapiens); assay: HIF-2a and HIF-1a reporter inhibition panel, dose response, selectivity assay for HIF-2a inhibitor project, cell-based, luminescence (AID 651581); conditions: HIF-2a, run 2
pIC50: −log10 of the molar value.
result type: pIC50

• Cc1nc2cc(-c3ccccc3)nn2c(C)c1CCC(=O)N1CCN(c2ccccc2)CC1 = 5.95
• CC(C)C[C@@H](N)c1nnc(SCC(=O)c2ccc(Cl)cc2)o1 = 5.40
• COc1ccc(OC)c(S(=O)(=O)ON2C(=O)c3ccccc3C2=O)c1 = 5.14
• CC(=O)N(C(C)=O)c1ccc(Oc2ccc(Oc3ccc(N(C(C)=O)C(C)=O)cc3)cc2)cc1 = 5.80
• CCOC(=O)Cc1csc(NC(=S)NC(=O)c2ccc(F)cc2)n1 = 5.70
• O=Cc1ccc(-c2cccs2)s1 = 5.25
• Cc1cc(SC#N)cc(C)c1NC(=O)CCl = 5.11
• Cc1nn(-c2ccccc2Cl)c(Cl)c1/C=N/Nc1cccc(C(=O)O)c1 = 4.62
• COc1ccccc1C(C[N+](=O)[O-])c1c(N)n(C)c(=O)n(C)c1=O (stereo unspecified) = 5.02
• CCOC(=O)Cc1csc(NC(=S)NC(=O)c2ccc([N+](=O)[O-])cc2)n1 = 5.22

* * *

biological target: Endothelial PAS domain-containing protein 1 (Homo sapiens) (UniProt Q99814); test: HIF-2a and HIF-1a reporter inhibition panel, dose response, selectivity assay for HIF-2a inhibitor project, cell-based, luminescence (AID 651581); conditions: HIF-2a PANC, run 1
Reported IC50 is given for each of the following molecules.
result type: IC50

* Cc1ccc(S(=O)(=O)c2ncccc2[N+](=O)[O-])cc1 | 20.6 µM
* CCOC(=O)Cc1csc(NC(=S)NC(=O)c2ccc([N+](=O)[O-])cc2)n1 | 35.8 µM
* O=C(O)c1cccc(CSc2nnc(-c3ccc(Cl)cc3)o2)c1 | 3.03 µM
* Cc1nn(-c2ccccc2)c(Cl)c1/C=N/Nc1ccc(Cl)c(C(=O)O)c1 | > 99 µM
* COc1ccc(-n2nc3ccc(N)cc3n2)cc1 | 3.23 µM
* COc1ccc(CNC(=O)c2nc(S(=O)(=O)Cc3ccccc3)ncc2Cl)cc1 | 29.8 µM
* Cc1ccc(NC(=O)c2cc(N3C(=O)C=CC3=O)ccc2N2CCOCC2)cc1Cl | 76.3 µM
* CCOc1ccc2nc(SCc3ccc(CC(=O)O)cc3)c(C#N)cc2c1 | 10.9 µM
* Cc1nc2cc(-c3ccc(Cl)cc3)nn2c(C)c1CCC(=O)NCc1ccco1 | 0.773 µM
* CNC(=O)NC(=O)COC(=O)CCCSc1nc2ccccc2s1 | 15.8 µM
* C/C(=N\NC(=O)c1n[nH]c2c1CCC2)c1cccs1 | 27.1 µM
* CC(C)(C)c1ccc(-c2noc(CCC(N)=O)n2)cc1 | < 1 µM
* Cc1ccc(NC(=O)c2cc(N3C(=O)C=CC3=O)ccc2N2CCOCC2)cc1 | > 99 µM
* C=CS(=O)(=O)c1sc(Cl)c(N2CCOCC2)c1[N+](=O)[O-] | > 99 µM
* CC(=O)Nc1ccc(OS(=O)(=O)c2ccc(C)cc2C)cc1 | 5.49 µM
* Cc1cc(SC#N)cc(C)c1NC(=O)CCl | > 99 µM
* O=C(CCCc1ccccc1)Nc1cccc(C(=O)O)c1 | > 99 µM
* COc1ccc(CNC(=O)CCc2c(C)nc3cc(-c4ccccc4OC)nn3c2C)cc1 | > 99 µM
* CCOC(=O)C1CCN(C(=O)CCc2c(C)nc3cc(-c4ccccc4)nn3c2C)CC1 | 1.83 µM
* COc1cccc(C(=O)C(C#N)=C(SC)SC)c1 | 47.8 µM
* CCOC(=O)c1ccc(Oc2nc(NC(C)(C)C)nc(N(C)C)n2)cc1 | 20.7 µM
* Cc1nc2cc(-c3ccccc3)nn2c(C)c1CCC(=O)NCc1ccco1 | 6.92 µM
* N#CCC(=O)N/N=C\c1cccc(OC/C=C/c2ccccc2)c1 | > 99 µM

* * *

Overview of recorded pIC50 for various compounds
biological target: Hypoxia-inducible factor 1-alpha (Homo sapiens) (UniProt Q16665); assay: HIF-2a and HIF-1a reporter inhibition panel, dose response, selectivity assay for HIF-2a inhibitor project, cell-based, luminescence (AID 651581); conditions: HIF-1a, run 2
Sequence (Q16665 whole entry, looked up): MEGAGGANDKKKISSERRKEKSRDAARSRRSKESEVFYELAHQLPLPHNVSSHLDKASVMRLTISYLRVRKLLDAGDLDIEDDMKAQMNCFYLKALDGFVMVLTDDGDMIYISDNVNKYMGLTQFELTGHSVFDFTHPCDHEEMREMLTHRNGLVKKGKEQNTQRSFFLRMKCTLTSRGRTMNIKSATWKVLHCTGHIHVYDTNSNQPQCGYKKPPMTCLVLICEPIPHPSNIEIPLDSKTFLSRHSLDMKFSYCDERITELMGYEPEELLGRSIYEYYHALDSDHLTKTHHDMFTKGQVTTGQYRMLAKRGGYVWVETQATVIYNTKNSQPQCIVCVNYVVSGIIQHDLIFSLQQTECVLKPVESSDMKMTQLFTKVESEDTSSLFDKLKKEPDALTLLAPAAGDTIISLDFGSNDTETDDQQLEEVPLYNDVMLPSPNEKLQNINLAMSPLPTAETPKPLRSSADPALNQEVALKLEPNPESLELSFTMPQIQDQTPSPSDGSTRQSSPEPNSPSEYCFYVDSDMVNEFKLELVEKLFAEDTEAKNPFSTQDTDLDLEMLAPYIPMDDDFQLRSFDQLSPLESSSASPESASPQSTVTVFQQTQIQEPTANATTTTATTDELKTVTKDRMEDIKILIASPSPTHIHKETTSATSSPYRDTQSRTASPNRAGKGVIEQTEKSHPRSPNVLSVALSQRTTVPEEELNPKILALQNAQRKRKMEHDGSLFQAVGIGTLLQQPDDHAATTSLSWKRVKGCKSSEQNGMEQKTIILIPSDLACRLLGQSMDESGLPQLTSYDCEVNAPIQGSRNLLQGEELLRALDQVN
pIC50: −log10 of the molar value.
result type: pIC50

- CCOC(=O)Cn1cc(/C=C/[N+](=O)[O-])c2ccccc21: 4.60
- Cc1nc2cc(-c3ccccc3)nn2c(C)c1CCC(=O)N1CCN(c2ccccc2)CC1: 5.10
- Cc1c(CCC(=O)N2CCC(C(=O)O)(c3ccccc3)CC2)c(=O)oc2cc3oc4c(c3cc12)CCCC4: 5.33
- O=C1C=CC(=O)N1c1ccccc1N1C(=O)C=CC1=O: 4.46
- COc1ccc(-n2nc3ccc(N)cc3n2)cc1: 4.21

* * *

Let's look at some compounds and their measured pIC50.
biological target: Hypoxia-inducible factor 1-alpha (Homo sapiens); assay: HIF-2a and HIF-1a reporter inhibition panel, dose response, selectivity assay for HIF-2a inhibitor project, cell-based, luminescence (AID 651581); conditions: HIF-1a, run 1
pIC50: −log10 of the molar value.
result type: pIC50

* COc1cccc(NC(=O)c2nc(S(C)(=O)=O)ncc2Cl)c1 | 4.83
* COCCn1c(C)cc(C(=O)CSc2nnc3ccccn23)c1C | 4.54
* Cc1c(CCC(=O)NCCC(=O)O)c(=O)oc2c(C)c3oc4c(c3cc12)CCCC4 | 5.91
* COc1cc(/C=C/[N+](=O)[O-])ccc1O | 4.60
* Cc1ccc(C(=O)c2cccc(N)c2)cc1C | 5.30
* CC(=O)Nc1ccc(NC(=O)c2c([N+](=O)[O-])c(C(C)(C)C)nn2C)cc1 | 5.03
* CCOC(=O)C1CCN(Cc2cc(=O)oc3c(C)c(C)ccc23)CC1 | 4.50
* O=C(Nc1ccc(F)cc1)c1nc(S(=O)(=O)Cc2ccccc2)ncc1Cl | 4.83
* O=C(O)COc1ccc(-c2nccc(-c3ccccn3)n2)cc1 | 6.40
* CCN(CC)CCCC(C)n1c2nc(=O)[nH]c(=O)c-2nc2cc(Cl)ccc21 (stereo unspecified) | 4.74
* CC(=O)Nc1ccc(OC(=O)N2CCCCC2)cc1 | 4.94
* CC(C)(C)c1ccc(/C=N/Nc2ccc(C(=O)O)cc2)cc1 | 4.28
* COC(=O)CSc1nnc(-c2sc3ccccc3c2Cl)o1 | 5.64
* C/C(=N/NC(=O)c1cc(C2CC2)[nH]n1)c1cccs1 | 4.61

* * *

molecular target: Endothelial PAS domain-containing protein 1 (Homo sapiens) (UniProt Q99814); assay: HIF-2a and HIF-1a reporter inhibition panel, dose response, selectivity assay for HIF-2a inhibitor project, cell-based, luminescence (AID 651581); details: HIF-2a PANC, mean of runs
The source made the active and inactive calls. The rule behind the calls is not given here.
Outcomes: y = active, n = inactive

* CC(C)(C)c1ccc(-c2noc(CCC(=O)NCc3ccco3)n2)cc1 | y
* CC(C)(C)c1ccc(-c2noc(CCC(=O)Nc3cccnc3)n2)cc1 | y
* Cc1nc(SCc2cccc(C(=O)O)c2)nc2c1CCCC2 | n
* Cc1cc(C(=O)Nc2cccc(C(=O)O)c2)oc1C | n
* Cc1nn(-c2ccccc2Cl)c(Cl)c1/C=N/Nc1cccc(C(=O)O)c1 | n
* Cc1cc(NC(=O)c2ccccc2)c(Cl)cc1N | n
* Cc1nnnn1/C(=C\c1ccccc1)C(=O)OCC(=O)Nc1ccc(Cl)cc1F | y
* CCOc1ccc(C(=O)Nc2cccc(C(=O)O)c2C)cc1Cl | y
